This collection of values is drawn from PubChem BioAssay (Tox21).

Assay: qHTS assay to identify small molecule antagonists of the thyroid receptor (TR) signaling pathway (AID 743065); further: nearly all actives have a fitted effect of over 55% in size
Settings: GH3.TRE-Luc, T3-stimulated luciferase inhibition, 23.5 h; series mostly up to 70.3 µM
Results filed as inconclusive are left out. Calls of active or inactive are those of the source. The call rests on the fitted dose curve; in most records, active means well fitted inhibition curve with a large enough effect in the repeat runs; inconclusive means weak or mixed curves; inactive means no such curve, though single readings can be large or run the other way.
Choose the fitting class; nothing outside class 1 for active, class 0 for inactive is accepted.

See these solved cases before continuing.
CC1(C)C(/C=C(\Cl)C(F)(F)F)C1C(=O)OC(C#N)c1cccc(Oc2ccccc2)c1 (centres undefined)
class 0
CS(=O)(=O)c1ccc(C(=O)C2C(=O)CCCC2=O)c([N+](=O)[O-])c1
class 1
S=C=Nc1cccc2ccccc12
class 0

For ClC1=C(Cl)[C@]2(Cl)[C@H]3[C@H]([C@H]4C=C[C@H]3C4)[C@@]1(Cl)C2(Cl)Cl , which call appears in the assay record?
class 1

----------
Assay: A CellTox Green Cytotoxicity Assay to monitor cytotoxicity in HEK293 cells - 8 hour (AID 1224884); further: nearly all actives have a fitted effect of over 35% in size
Conditions: CellTox Green fluorescence; series mostly up to 76.8 µM
Records with an inconclusive call do not appear. Calls of active or inactive are those of the source. Calls follow the shape of the dose curve; as a rule, active = well fitted activation curve with a large enough effect in the repeat runs; inconclusive = weak or mixed curves; inactive = flat fitted curve, though single readings scatter.
Choose the fitting class; nothing outside active, inactive is accepted.

See these solved cases before continuing.
CC(C)CCCCCCCOP(=O)(Oc1ccccc1)Oc1ccccc1
inactive
C[C@@H](Oc1ccc(Cl)cc1Cl)C(=O)O
inactive

Pending compound:
For C[C@H]1CC[C@@H]2[C@@H](C)[C@H]3[C@H](C[C@H]4[C@@H]5CC=C6CC(O[C@@H]7O[C@H](CO)[C@H](O)[C@H](O[C@@H]8O[C@H](CO)[C@@H](O)[C@H](O)[C@H]8O)[C@H]7O[C@H]7O[C@@H](C)[C@H](O)[C@@H](O)[C@H]7O)CC[C@]6(C)[C@H]5CC[C@]34C)N2C1 (stereo partly specified) , which call appears in the assay record?
active

----------
Assay: qHTS RealTime-Glo MT Cell Viability Assay in HepG2 cells - 0 hour (AID 1224889); further: nearly all actives have a fitted effect of over 50% in size
Conditions: RealTime-Glo luminescence; series mostly up to 76.8 µM
Inconclusive results are not listed. The source made the active and inactive calls. Calls follow the shape of the dose curve; as a rule, active = well fitted cell-killing curve with a large enough effect in the repeat runs; inconclusive = weak or mixed curves, or effect the other way; inactive = flat fitted curve, though single readings scatter.
PROPERTY: Potency

CS(=O)(=O)c1ccc(C(=O)C2C(=O)CCCC2=O)c([N+](=O)[O-])c1
inactive
C[As+](C)(C)CC(=O)[O-]
inactive
Cl/C=C\CCl
inactive
ClC(Cl)=C(Cl)Cl
inactive
COc1cc(C=O)cc2c1[C@H](COC(N)=O)[C@]1(OC(C)=O)ON2C[C@H]2[C@@H]1N2C(C)=O
inactive
COc1ccc(N)cc1N
inactive

Now for a further compound.
Entry O=C(NC(=O)c1c(F)cccc1F)Nc1cc(Cl)c(OC(F)(F)C(F)F)c(Cl)c1 : reported Potency = ?
inactive

----------
Experiment: A CellTox Green Cytotoxicity Assay to monitor cytotoxicity in HEK293 cells - 32 hour (AID 1224881); further: nearly all actives have a fitted effect of over 40% in size
Settings: CellTox Green fluorescence; series mostly up to 76.8 µM
Results filed as inconclusive are left out. The source made the active and inactive calls. Calls come from the whole dose curve; as a rule, active = well fitted activation curve with a large enough effect in the repeat runs; inconclusive = weak or mixed curves; inactive = flat fitted curve, though single readings scatter.
Choose the fitting class; nothing outside Y for active, N for inactive is accepted.

See these solved cases before continuing.
C=CCC1=C(C)C(OC(=O)C2C(C=C(C)C)C2(C)C)CC1=O (stereo not given)
Y
N#CSCSC#N
Y
CCCCCCCCCCBr
N
Nc1ccc(Cc2ccc(N)c(Cl)c2)cc1Cl
N
CC(C)(COCC1CO1)COCC1CO1 (stereo not given)
N
CC(C)[C@H](C(=O)OC(C#N)c1cccc(Oc2ccccc2)c1)c1ccc(OC(F)F)cc1 (stereo not given in full)
N
CCSC(C)CC1CC(=O)C(/C(CC)=N/OC/C=C/Cl)=C(O)C1 (stereo not given)
N
CCOC(=O)c1ccccc1S(=O)(=O)NC(=O)Nc1nc(Cl)cc(OC)n1
Y

For CC(Cc1ccc(C(C)(C)C)cc1)CN1C[C@@H](C)O[C@@H](C)C1 (stereo not given in full) , which call appears in the assay record?
Y

For CC1(C)[C@H](C(=O)O[C@H](C#N)c2cccc(Oc3ccccc3)c2)[C@@H]1/C=C(\Cl)C(F)(F)F , which call appears in the assay record?
N

For CCC(C)c1cc(C(C)(C)C)cc(-n2nc3ccccc3n2)c1O (stereo not given) , which call appears in the assay record?
N

For Cn1[nH]nnc1=S , which call appears in the assay record?
N

----------
Assay: qHTS RealTime-Glo MT Cell Viability Assay in HEK293 cells - 24 hour (AID 1224886); further: nearly all actives have a fitted effect of over 50% in size
Conditions: RealTime-Glo luminescence; series mostly up to 76.8 µM
Records with an inconclusive call do not appear. Activity calls are given as the source filed them. Calls come from the whole dose curve; as a rule, active = well fitted cell-killing curve with a large enough effect in the repeat runs; inconclusive = weak or mixed curves, or effect the other way; inactive = flat fitted curve, though single readings scatter.
Choose the fitting class; nothing outside active, inactive is accepted.

CN(C)CCc1c[nH]c2ccc(O)cc12
inactive

For BrC(Br)C(Br)(Br)Br , which call appears in the assay record?
active

For CC(=O)c1cc(C(C)(C)C)cc2c1CCC2(C)C , which call appears in the assay record?
inactive

For CCN(CC)c1c([N+](=O)[O-])cc(C(F)(F)F)c(N)c1[N+](=O)[O-] , which call appears in the assay record?
active

For Cn1[nH]nnc1=S , which call appears in the assay record?
inactive

For COP(=O)(CCC(=O)NCO)OC , which call appears in the assay record?
inactive

For ClCc1ccc(Cl)cc1Cl , which call appears in the assay record?
inactive

For Cc1ccc(CCl)cc1 , which call appears in the assay record?
inactive

For CCC(C)c1cc(C(C)(C)C)cc(-n2nc3ccccc3n2)c1O (configuration not stated) , which call appears in the assay record?
inactive

For C[C@]12Cc3nonc3C[C@@H]1CC[C@@H]1[C@@H]2CC[C@@]2(C)[C@H]1CC[C@]2(C)O , which call appears in the assay record?
active

----------
Assay: qHTS RealTime-Glo MT Cell Viability Assay in HEK293 cells - 8 hour (AID 1224887); further: nearly all actives have a fitted effect of over 50% in size; further: potency means the concentration at half of the fitted maximal effect
Conditions: RealTime-Glo luminescence; series mostly up to 76.8 µM
Records with an inconclusive call do not appear. Calls of active or inactive are those of the source. The call rests on the fitted dose curve; in most records, active means well fitted cell-killing curve with a large enough effect in the repeat runs; inconclusive means weak or mixed curves, or effect the other way; inactive means flat fitted curve, though single readings scatter.
PROPERTY: Potency

CCS(=O)(=O)c1cccnc1S(=O)(=O)NC(=O)Nc1nc(OC)cc(OC)n1
inactive
CCOCCOC(C)=O
inactive
O=C(NC(=O)c1c(F)cccc1F)Nc1cc(Cl)c(OC(F)(F)C(F)F)c(Cl)c1
inactive
CC(C)(C)c1ccc(CSc2cnn(C(C)(C)C)c(=O)c2Cl)cc1
7.76 µM (active)
CCN(CC)c1c([N+](=O)[O-])cc(C(F)(F)F)c(N)c1[N+](=O)[O-]
6.92 µM (active)

Entry Clc1ccc(CO/N=C(\Cn2ccnc2)c2ccc(Cl)cc2Cl)c(Cl)c1 : reported Potency = ?
19 µM (active)

Entry N#CC(Cl)Cl : reported Potency = ?
inactive

Entry CC(=O)Nc1ccc2c(c1)Cc1ccccc1-2 : reported Potency = ?
inactive

Entry C=CCC1=C(C)C(OC(=O)C2C(C=C(C)C)C2(C)C)CC1=O (stereo not drawn) : reported Potency = ?
23.2 µM (active)

Entry CCCCCCCCCCCCBr : reported Potency = ?
inactive

Entry O=C(O)c1cc[c]([Hg][Cl])cc1 : reported Potency = ?
34.7 µM (active)

Entry CC[C@H](C)[C@H]1O[C@]2(C=C[C@@H]1C)C[C@@H]1C[C@@H](C/C=C(\C)[C@@H](O[C@H]3C[C@H](OC)[C@@H](O[C@H]4C[C@H](OC)[C@@H](O)[C@H](C)O4)[C@H](C)O3)[C@@H](C)/C=C/C=C3\CO[C@@H]4[C@H](O)C(C)=C[C@@H](C(=O)O1)[C@]34O)O2 : reported Potency = ?
inactive

Entry NC(=O)CCl : reported Potency = ?
inactive

----------
Experiment: qHTS assay to identify aromatase inhibitors - cell viability counter screen (AID 743084);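 further: cells stimulated with testosterone during compound exposure; nearly all actives have a fitted effect of over 55% in size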
Conditions: MCF-7 aro ERE viability, CellTiter-Fluor, 24 h; series mostly up to 70.3 µM
Records with an inconclusive call do not appear. Calls of active or inactive are those of the source. Calls follow the shape of the dose curve; as a rule, active = well fitted cell-killing curve with a large enough effect in the repeat runs; inconclusive = weak or mixed curves, or effect the other way; inactive = no such curve, though single readings can be large or run the other way.
Choose the fitting class; nothing outside true (1) (active), false (0) (inactive) is accepted.

FC(F)(F)c1cccc(C2=CCN(CCc3ccc4ccccc4c3)CC2)c1
false (0)
CC(C)CC(C)Nc1ccc(Nc2ccccc2)cc1 (stereo unspecified)
true (1)
O=C1NCN(c2ccccc2)C12CCN(CC1COc3ccccc3O1)CC2 (stereo unspecified)
false (0)

For Clc1ccc(C(c2ccccc2Cl)C(Cl)(Cl)Cl)cc1 (stereo unspecified) , which call appears in the assay record?
false (0)

For CC(C)CC(C)(c1ccc(O)cc1)c1ccc(O)cc1 , which call appears in the assay record?
true (1)

For CCCCCCCCCCCCCC[P+](CCCCCC)(CCCCCC)CCCCCC (tested in a mixture with another compound) , which call appears in the assay record?
true (1)

----------
Assay: qHTS assay to identify small molecule antagonists of the vitamin D receptor (VDR) signaling pathway - cell viability counter screen (AID 743225); further: nearly all actives have a fitted effect of over 50% in size
Conditions: VDR-bla HEK293T viability, CellTiter-Glo luminescence, 16 h; series mostly up to 61 µM
Results filed as inconclusive are left out. The source made the active and inactive calls. Calls follow the shape of the dose curve; as a rule, active = well fitted cell-killing curve with a large enough effect in the repeat runs; inconclusive = weak or mixed curves, or effect the other way; inactive = no such curve, though single readings can be large or run the other way.
Choose the fitting class; nothing outside T = active, F = inactive is accepted.

See these solved cases before continuing.
N#CCCSCCC#N
F
ClC1=C(Cl)C2(Cl)C3C(Cl)C=CC3C1(Cl)C2(Cl)Cl (stereo unspecified)
F
CC1(C)CN=C(NN=C(/C=C/c2ccc(C(F)(F)F)cc2)/C=C/c2ccc(C(F)(F)F)cc2)NC1
T

For O=C1NCN(c2ccccc2)C12CCN(CC1COc3ccccc3O1)CC2 (stereo unspecified) , which call appears in the assay record?
F

For Oc1ccc(C2(c3ccc(O)cc3)CCCCC2)cc1 , which call appears in the assay record?
T

For c1ccc(Nc2ccc3ccccc3c2)cc1 , which call appears in the assay record?
F

For ClC(Cl)=C(Cl)Cl , which call appears in the assay record?
F

For CN(C)C(=S)S , which call appears in the assay record?
F

For CN(C)c1ccc(N=Nc2ccccc2)cc1 , which call appears in the assay record?
F
